Biological target: T1, human CD40 on cells (human, UniProt P25942 21-277)
T1 construct: whole, on cells; The cell line used is named in each row's assay; also called hCD40; TNFRSF5
T1 sequence (P25942 21-277): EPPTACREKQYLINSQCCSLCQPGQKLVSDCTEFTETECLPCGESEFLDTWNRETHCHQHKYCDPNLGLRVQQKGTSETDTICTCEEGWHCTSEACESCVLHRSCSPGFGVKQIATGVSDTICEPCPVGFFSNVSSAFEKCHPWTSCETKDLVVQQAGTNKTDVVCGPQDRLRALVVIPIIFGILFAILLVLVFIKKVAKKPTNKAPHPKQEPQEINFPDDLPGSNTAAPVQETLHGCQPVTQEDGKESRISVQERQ
Assay: FACS, CHO-K1/hCD40 cells
The following binders are listed with their measured pEC50 values.
Scale note: pEC50 = -log10(concentration in M).

Observe how each entry below is paired with its result.
PR006515 (antibody, human IgG1, kappa, V domains shown, PR003379 variant L:S93M; human IgG1 L234A, L235A, G237A) VH: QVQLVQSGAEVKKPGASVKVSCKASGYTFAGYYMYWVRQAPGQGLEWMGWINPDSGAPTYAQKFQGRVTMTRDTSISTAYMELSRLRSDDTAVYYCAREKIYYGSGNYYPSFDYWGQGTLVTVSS VL: DIQLTQSPSFLSASVGDRVTITCRASQGISSYLAWYQQKPGKAPKLLIYAASTLQSGVPSRFSGSGSGTEFTLTISSLQPEDFATYYCQQLNMYPWTFGQGTKVEIKR    8.34
PR006505 (antibody, human IgG1, kappa, V domains shown, PR003379 variant L:S93I; human IgG1 L234A, L235A, G237A) VH: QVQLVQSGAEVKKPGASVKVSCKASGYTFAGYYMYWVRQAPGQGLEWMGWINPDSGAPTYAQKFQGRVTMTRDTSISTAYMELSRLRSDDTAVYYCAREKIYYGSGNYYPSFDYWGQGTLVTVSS VL: DIQLTQSPSFLSASVGDRVTITCRASQGISSYLAWYQQKPGKAPKLLIYAASTLQSGVPSRFSGSGSGTEFTLTISSLQPEDFATYYCQQLNIYPWTFGQGTKVEIKR    8.22

Please look at the following binder next.
Give pEC50 for PR006503 (antibody, human IgG1, kappa, V domains shown, PR003379 variant L:N92G; human IgG1 L234A, L235A, G237A) VH: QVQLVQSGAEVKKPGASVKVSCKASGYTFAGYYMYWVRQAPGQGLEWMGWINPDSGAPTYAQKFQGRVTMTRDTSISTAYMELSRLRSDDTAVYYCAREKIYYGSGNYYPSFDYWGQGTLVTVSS VL: DIQLTQSPSFLSASVGDRVTITCRASQGISSYLAWYQQKPGKAPKLLIYAASTLQSGVPSRFSGSGSGTEFTLTISSLQPEDFATYYCQQLGSYPWTFGQGTKVEIKR 8.22
